molecular target: Tyrosine-protein kinase HCK (Homo sapiens); settings: at 1 µM
Assign residual activity to each entry below.
Numeric answer only, unit % assumed.

[Q] Entry under review: COc1cc2nccc(Oc3ccc(NC(=O)Nc4cc(C)on4)c(Cl)c3)c2cc1OC . Reported residual activity?
[A] 7

[Q] Entry under review: NCCNc1ncc(C(N)=O)c(Nc2cccc(C(F)(F)F)c2)n1 . Reported residual activity?
[A] 78

[Q] Entry under review: O=C(NC(NC(=S)Nc1ccc(F)c([N+](=O)[O-])c1)C(Cl)(Cl)Cl)C(c1ccccc1)c1ccccc1 (stereo not drawn) . Reported residual activity?
[A] 80

[Q] Entry under review: O=c1cc(N2CCOCC2)oc2c1ccc1ccccc12 . Reported residual activity?
[A] 85

[Q] Entry under review: Nc1ncnc2c1c(-c1ccc(Oc3ccccc3)cc1)cn2C1CCCC1 . Reported residual activity?
[A] 2

[Q] Entry under review: c1ccc(-c2cnc(Nc3ccc(OCCN4CCCC4)cc3)s2)cc1 . Reported residual activity?
[A] 57

[Q] Entry under review: COc1cc2nccc(Oc3ccc(NC(=S)NC(=O)c4ccccc4C)cc3)c2cc1OC . Reported residual activity?
[A] 7

[Q] Entry under review: N#C/C(=C1/Nc2ccccc2S1)c1ccnc(NCCc2cccnc2)n1 . Reported residual activity?
[A] 60

[Q] Entry under review: CN([C@@H](Cc1ccc(OS(=O)(=O)c2cccc3cnccc23)cc1)C(=O)N1CCN(c2ccccc2)CC1)S(=O)(=O)c1cccc2cnccc12 . Reported residual activity?
[A] 86

[Q] Entry under review: Cc1cc(C)c(/C=C2\C(=O)Nc3ccccc32)[nH]1 . Reported residual activity?
[A] 60

[Q] Entry under review: CSc1nc(-c2ccc(F)cc2)c(-c2ccnc(NC(C)c3ccccc3)c2)[nH]1 (stereo not drawn) . Reported residual activity?
[A] 85

[Q] Entry under review: CC(C)c1nn(-c2c(Cl)cccc2Cl)c2nc(Cc3ccc(OCCO)cc3)[nH]c(=O)c12 . Reported residual activity?
[A] 75

[Q] Entry under review: CCOC(=O)c1c(C)[nH]c(/C=C2\C(=O)Nc3ccccc32)c1C . Reported residual activity?
[A] 77

Cited source: ChEMBL document CHEMBL2218924
